# test method notes: gradient 5% acetonitrile 3 min, to 50% in 2 min, to 85% in 15 min, held 3 min, 100 µL/min
# test conditions: column: Zorbax Extend-C18 2.1 x 50 mm; eluents: water / acetonitrile, 0.1% formic acid
measured endpoint: RP-LC retention time (s)

>>> print(df.to_string())
                                    molecule     measured_endpoint  unit_of_measure  observed_measurement
 0  Cn1nc2n(c1=O)CCC(NS(=O)(=O)c1cccc3cccnc13)CC2 (stereo not drawn)  RP-LC retention time                s                   648
 1  CCOc1ccc(-c2noc(CN3C(=O)COc4ccc(C)cc43)n2)cc1OC  RP-LC retention time                s                  1010
 2  CC(C)CCNC(=O)CN1C(=O)CC(c2cccs2)=Nc2ccccc21  RP-LC retention time                s                   888
 3  O=C(C1=NN(Cc2cccc(F)c2)c2ccc(Cl)cc2S1(=O)=O)N1CCOCC1  RP-LC retention time                s                   875
 4  Cc1nc([C@@H]2CN(C(=O)c3noc(C)c3Cn3cccn3)C[C@H]2C(N)=O)n[nH]1  RP-LC retention time                s                   578
 5  CCS(=O)(=O)c1ccc2c(c1)N(Cc1nc(-c3ccc4c(c3)OCO4)no1)C(=O)CO2  RP-LC retention time                s                   859
 6  CCOCC(=O)N1CCC(c2nc(CNC(=O)C3CCC3)cs2)CC1  RP-LC retention time                s                   623
 7        Cc1ccc(NC(=O)Cn2ccc3sccc3c2=O)cc1C  RP-LC retention time                s                   740
 8  Cc1ccc(CN2CCN(CC(=O)NCCCc3ccccc3)C(=O)C2=O)cc1  RP-LC retention time                s                   794
 9  Cn1nc(C(=O)N2CCCCC2)c2c1CCN(C(=O)CCC(=O)N1CCCCCC1)C2  RP-LC retention time                s                   668
10  CCOC(=O)c1cc(S(=O)(=O)N2CCCC2C(=O)NC2CCCC2)cn1C (stereo not drawn)  RP-LC retention time                s                   732
11  CC(Oc1ccccc1)C(=O)N1CCN(c2nc(CN3CCOCC3)cs2)CC1 (stereo not drawn)  RP-LC retention time                s                   621
12  Cn1ncc2c3ccccc3n(CCCC(=O)NCc3ccc4c(c3)OCO4)c2c1=O  RP-LC retention time                s                   751

###

# test method notes: gradient 5% acetonitrile 3 min, to 50% in 2 min, to 85% in 15 min, held 3 min, 100 µL/min
# test conditions: column: Zorbax Extend-C18 2.1 x 50 mm; eluents: water / acetonitrile, 0.1% formic acid
measured endpoint: RP-LC retention time (s)

[1] CN(C)S(=O)(=O)c1ccc(-c2nnc(C(=O)NCc3cccc(Cl)c3)o2)cc1
[2] O=C(CCc1nnn2c1CN(C(=O)Nc1ccc3c(c1)OCCO3)CC2)N1CCCC1
Identify the item whose RP-LC retention time is the smaller number: 1 or 2 I would appreciate it if you answered with the label of your choice.
2

[P] CC(C)CC(=O)Nc1cnc(-c2ccccc2)nc1
[Q] O=C(c1cc(Cl)ccc1F)N1CCC(c2nc(C3CC3)n[nH]2)CC1
Identify the item whose RP-LC retention time is the smaller number: P or Q I would appreciate it if you answered with the label of your choice.
Q

[a] CCOC(=O)C1CCN(C(=O)C2CCN(c3nccc(C)n3)CC2)CC1
[b] CCOC(=O)c1noc2ncnc(N3CCN(c4ccc(F)cc4)CC3)c12
Which numeric RP-LC retention time is bigger, that of a or that of b ? I would appreciate it if you answered with the label of your choice.
b
(b: 1010 s, a: 662 s)
